# protocol.text: Pharmacokinetics in nude mouse (IV and PO)
# Type: in vivo
# condition.context: female, BALB/c nude, plasma, PO, 200 mg/kg

molecule: Cc1nc2c(F)cc(-c3cc(Nc4ncc(CN5C[C@H]6CN(C)C[C@H]6C5)cn4)ncc3F)cc2n1C(C)C [Compound 6-1]
AUC(0-t) / ng·h/mL: 90900

====

# maps each entry to its Cmax
# protocol.text: PK in Colo-205 subcutaneous tumor model of BALB/c nude mouse
# Assay type: in vivo
# condition.context: female, plasma, Colo-205 tumor-bearing nude mouse, PO QD 22 days, 25 mg/kg, after last administration
reported.property: Cmax (µg/mL)

molecule: CCN1CCN(Cc2cnc(Nc3cc(-c4cc(F)c5nc(C)n(C(C)C)c5c4)c(F)cn3)nc2)CC1
numeric.value: 1.15

molecule: CCN1CCN(Cc2ccc(Nc3ncc(F)c(-c4cc(F)c5nc(C)n(C(C)C)c5c4)n3)nc2)CC1 [LY2835219, reference compound]
numeric.value: 0.733

====

Let's look at some compounds and their measured AUC(0-t).
# protocol.text: Linear pharmacokinetics in rat (PO)
# Type: in vivo, male SD rat
# condition.context: male, SD, plasma, 15 mg/kg

compound: CCN1CCN(Cc2ccc(Nc3ncc(F)c(-c4cc(F)c5nc(C)n(C(C)C)c5c4)n3)nc2)CC1 [LY2835219, reference compound]
display.unit: ng·h/mL
AUC(0-t): 9690
--
compound: CCN1CCN(Cc2cnc(Nc3cc(-c4cc(F)c5nc(C)n(C(C)C)c5c4)c(F)cn3)nc2)CC1
display.unit: ng·h/mL
AUC(0-t): 12600

====

# protocol.text: In vivo assay for blood brain barrier permeability in rat
# condition.context: male, SD, 30 mg/kg, PO, dose 30, cerebrospinal fluid
# Protocol: Test animal: male SD rat, 3 rats/test compound/time point, weight: 250-300 g/rat After separate PO administration of control agent and compound 1, blood was collected by cardiac puncture at 2, 4, 24 and 48 h; about 8 ml whole blood was collected, and placed in a centrifuge tube containing K2EDTA anticoagulant agent; cerebrospinal fluid and brain tissue were also collected at the same time, 3 rats at each time point. […]

compound: CCN1CCN(Cc2cnc(Nc3cc(-c4cc(F)c5nc(C)n(C(C)C)c5c4)c(F)cn3)nc2)CC1 [Compound 1]
AUC(0-t) (ng·h/mL): 1290

compound: CCN1CCN(Cc2ccc(Nc3ncc(F)c(-c4cc(F)c5nc(C)n(C(C)C)c5c4)n3)nc2)CC1 [LY2835219, reference compound]
AUC(0-t) (ng·h/mL): 451

====

# protocol.text: Pharmacokinetics in nude mouse (IV and PO)
# Type: in vivo
# condition.context: female, BALB/c nude, plasma, PO, 10 mg/kg, read-out: F (absolute bioavailability)
Each entry below lists one item and its recorded bioavailability value.

compound: CCN1CCN(Cc2cnc(Nc3cc(-c4cc(F)c5nc(C)n(C(C)C)c5c4)c(F)cn3)nc2)CC1 [Compound 1]
display.unit: %
bioavailability: 65.5
--
compound: CCN1CCN(Cc2ccc(Nc3ncc(F)c(-c4cc(F)c5nc(C)n(C(C)C)c5c4)n3)nc2)CC1 [LY2835219, reference compound]
display.unit: %
bioavailability: 41.1
--
compound: Cc1nc2c(F)cc(-c3cc(Nc4ncc(CN5C[C@H]6CN(C)C[C@H]6C5)cn4)ncc3F)cc2n1C(C)C [Compound 6-1]
display.unit: %
bioavailability: 39.3
